- System under test: α-chymotrypsin (Bos taurus, UniProt P00766)
- Procedure details: Chymotrypsin inhibitory activity of peptides (AAPFpNA hydrolysis; IC50, Ki, residual activity)
- Type: biochemical
- Run conditions: peptide 0.1 μM
Bridge positions count the residues as written; N and C are the ends. Peptide text beside a SMILES is read from it.
Known Residual activity of chymotrypsin of a selection of compounds
Respond with the bare value in %.

QUERY: Look at this compound and give its reported Residual activity of chymotrypsin. CC[C@H](C)[C@@H]1NC(=O)[C@H](CO)NC(=O)[C@H](Cc2ccc(O)cc2)NC(=O)[C@H]([C@@H](C)O)NC(=O)[C@H](C)NC(=O)[C@H](C)NC(=O)CNC(=O)CNC(=O)[C@@H](N)CSSC[C@@H](C(=O)N[C@@H](Cc2ccccc2)C(=O)O)NC(=O)[C@H](CCCCN)NC(=O)[C@H](C)NC(=O)[C@@H]2CCCN2C1=O [CH32] (H-CGGAATYSIPAKCF-OH; disulfide 1-13; N-terminus and C-terminus assumed)
RESULT: 100.2

QUERY: Look at this compound and give its reported Residual activity of chymotrypsin. CC[C@H](C)[C@@H]1NC(=O)[C@H](CO)NC(=O)[C@H](Cc2ccc(O)cc2)NC(=O)[C@H]([C@@H](C)O)NC(=O)[C@H](C)NC(=O)[C@H](C)NC(=O)CNC(=O)[C@@H](N)CSSC[C@@H](C(=O)N[C@@H](Cc2ccccc2)C(=O)O)NC(=O)[C@H](CCCCN)NC(=O)[C@H](C)NC(=O)[C@@H]2CCCN2C1=O [CH31] (H-CGAATYSIPAKCF-OH; disulfide 1-12; N-terminus and C-terminus assumed)
RESULT: 104.3

QUERY: Look at this compound and give its reported Residual activity of chymotrypsin. CC[C@H](C)[C@@H]1NC(=O)[C@H](CO)NC(=O)[C@H](Cc2ccccc2)NC(=O)[C@H]([C@@H](C)O)NC(=O)[C@@H](NC(=O)[C@@H](N)CC(C)C)CSSC[C@@H](C(=O)N[C@@H](Cc2ccc(O)cc2)C(=O)NCC(=O)O)NC(=O)[C@H](CCC(N)=O)NC(=O)[C@@H]2CCCN2C(=O)[C@@H]2CCCN2C1=O [CH1] (H-LCTFSIPPQCYG-OH; disulfide 2-10; N-terminus and C-terminus assumed)
RESULT: 93.6
